FYI, the data here is from paper PMC10786891.

Target: T1, EsCas13d, nuclease-dead (Eubacterium siraeum, UniProt B0MS50, R295A;H300A;R849A;H854A)
T1 sequence: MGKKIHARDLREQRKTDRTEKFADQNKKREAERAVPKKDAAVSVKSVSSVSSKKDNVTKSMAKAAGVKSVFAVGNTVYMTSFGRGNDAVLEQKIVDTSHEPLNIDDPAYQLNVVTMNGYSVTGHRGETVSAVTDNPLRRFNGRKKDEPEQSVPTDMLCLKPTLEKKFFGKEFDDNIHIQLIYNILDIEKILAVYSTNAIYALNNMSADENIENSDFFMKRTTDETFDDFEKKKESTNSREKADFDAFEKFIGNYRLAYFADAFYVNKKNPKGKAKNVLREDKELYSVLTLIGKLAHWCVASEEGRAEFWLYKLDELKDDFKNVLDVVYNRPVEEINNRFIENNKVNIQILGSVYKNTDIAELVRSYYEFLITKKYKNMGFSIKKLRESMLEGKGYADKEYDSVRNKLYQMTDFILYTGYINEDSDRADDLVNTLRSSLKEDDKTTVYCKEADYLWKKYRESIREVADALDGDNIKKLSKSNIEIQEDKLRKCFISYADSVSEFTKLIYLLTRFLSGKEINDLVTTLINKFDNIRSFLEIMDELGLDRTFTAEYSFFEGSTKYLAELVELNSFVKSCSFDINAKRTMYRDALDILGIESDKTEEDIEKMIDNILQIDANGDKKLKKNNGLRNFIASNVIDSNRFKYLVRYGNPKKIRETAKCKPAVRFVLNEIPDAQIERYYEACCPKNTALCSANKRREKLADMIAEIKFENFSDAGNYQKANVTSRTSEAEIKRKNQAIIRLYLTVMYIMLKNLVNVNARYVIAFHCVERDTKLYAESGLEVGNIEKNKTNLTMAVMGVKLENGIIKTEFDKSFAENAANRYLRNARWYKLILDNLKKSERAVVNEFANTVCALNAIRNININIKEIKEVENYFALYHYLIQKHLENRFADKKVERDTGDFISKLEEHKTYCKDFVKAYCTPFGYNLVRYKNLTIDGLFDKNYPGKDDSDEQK
Experiment: crRNA (strand 1, pre-loaded); Mg2+; 40 mM Tris-HCl pH 7.5, 150 mM NaCl, 6 mM MgCl2, 1 mM DTT, 0.1% Tween-20, 0.2 mg/ml BSA; 25 C; 10 min per concentration, then washed
Details: tags: His6-TwinStrep-SUMO cleaved; N-terminal SNAP kept (SNAP-Surface 488); label: 3' end held by stalled T7 RNA polymerase
pKd: −log10 of the molar value.
pKd values for the binders below.

[
  {
    "Binder": "target 1 del18 (mixed) RNA 1: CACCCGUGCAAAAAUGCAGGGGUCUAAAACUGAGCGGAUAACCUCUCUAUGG RNA 2: GGGAAUGGAUCCACAUCUACGAAUUCGUACCAUGAGAGGUUAUCCGCUCACCGAGAUCGGAAGAGCACACGU",
    "pKd": 7.38
  },
  {
    "Binder": "target 1 insA 3' of 17,insU 3' of 16 (mixed) RNA 1: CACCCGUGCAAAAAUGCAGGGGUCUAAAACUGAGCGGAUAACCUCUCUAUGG RNA 2: GGGAAUGGAUCCACAUCUACGAAUUCGUACCAUAGAAUGAGGUUAUCCGCUCACCGAGAUCGGAAGAGCACACGU",
    "pKd": 7.42
  },
  {
    "Binder": "target 1 insU 3' of 13,insG 3' of 7 (mixed) RNA 1: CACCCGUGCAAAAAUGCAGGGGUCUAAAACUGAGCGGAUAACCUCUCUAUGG RNA 2: GGGAAUGGAUCCACAUCUACGAAUUCGUACCAUAGAGAGUGUUAUCGCGCUCACCGAGAUCGGAAGAGCACACGU",
    "pKd": 8.02
  },
  {
    "Binder": "target 3 insG 3' of 6,insU 3' of 4 (mixed) RNA 1: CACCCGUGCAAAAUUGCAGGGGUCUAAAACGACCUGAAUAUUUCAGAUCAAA RNA 2: GGGAAUGGAUCCACAUCUACGAAUUCGUUUUUGAUCUGAAAUAUUCGAGUGUCUGCAGAUCGGAAGAGCACACGU",
    "pKd": 7.95
  },
  {
    "Binder": "target 1 A9U,G13U (mixed) RNA 1: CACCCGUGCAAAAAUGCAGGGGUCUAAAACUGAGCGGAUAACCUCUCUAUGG RNA 2: GGGAAUGGAUCCACAUCUACGAAUUCGUACCAUAGAGAUGUUUUCCGCUCACCGAGAUCGGAAGAGCACACGU",
    "pKd": 7.28
  },
  {
    "Binder": "target 1 insA 3' of 11,insG 3' of 10 (mixed) RNA 1: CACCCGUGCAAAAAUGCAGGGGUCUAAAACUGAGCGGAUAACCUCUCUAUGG RNA 2: GGGAAUGGAUCCACAUCUACGAAUUCGUACCAUAGAGAGGUAUGAUCCGCUCACCGAGAUCGGAAGAGCACACGU",
    "pKd": 7.78
  },
  {
    "Binder": "target 3 insU 3' of 22,insU 3' of 6 (mixed) RNA 1: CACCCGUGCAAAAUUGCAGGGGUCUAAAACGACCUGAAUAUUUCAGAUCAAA RNA 2: GGGAAUGGAUCCACAUCUACGAAUUCGUUUUUUGAUCUGAAAUAUUCUAGGUCUGCAGAUCGGAAGAGCACACGU",
    "pKd": 7.56
  },
  {
    "Binder": "target 1 G17A,C22U (mixed) RNA 1: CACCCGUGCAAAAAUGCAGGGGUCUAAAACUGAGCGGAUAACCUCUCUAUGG RNA 2: GGGAAUGGAUCCACAUCUACGAAUUCGUAUCAUAAAGAGGUUAUCCGCUCACCGAGAUCGGAAGAGCACACGU",
    "pKd": 7.23
  },
  {
    "Binder": "target 3 insG 3' of 18,insU 3' of 1 (mixed) RNA 1: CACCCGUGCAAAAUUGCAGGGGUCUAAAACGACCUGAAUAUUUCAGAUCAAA RNA 2: GGGAAUGGAUCCACAUCUACGAAUUCGUUUUUGAGUCUGAAAUAUUCAGGUCUUGCAGAUCGGAAGAGCACACGU",
    "pKd": 7.08
  },
  {
    "Binder": "target 1 MT 5'PFS AAA 3'PFS AAC (mixed) RNA 1: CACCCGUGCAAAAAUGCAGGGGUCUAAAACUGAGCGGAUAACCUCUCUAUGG RNA 2: GGGAAUGGAUCCACAUCUACGAAUUCAAACCAUAGAGAGGUUAUCCGCUCAAACAGAUCGGAAGAGCACACGU",
    "pKd": 7.52
  },
  {
    "Binder": "target 1 del8,del15 (mixed) RNA 1: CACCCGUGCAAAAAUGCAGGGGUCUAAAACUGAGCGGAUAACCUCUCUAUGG RNA 2: GGGAAUGGAUCCACAUCUACGAAUUCGUACCAUAGAAGGUUACCGCUCACCGAGAUCGGAAGAGCACACGU",
    "pKd": 7.42
  },
  {
    "Binder": "target 1 U3C,C4A (mixed) RNA 1: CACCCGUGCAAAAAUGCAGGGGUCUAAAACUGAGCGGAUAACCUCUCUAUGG RNA 2: GGGAAUGGAUCCACAUCUACGAAUUCGUACCAUAGAGAGGUUAUCCGACCACCGAGAUCGGAAGAGCACACGU",
    "pKd": 7.92
  },
  {
    "Binder": "target 1 insG 3' of 16,insG 3' of 6 (mixed) RNA 1: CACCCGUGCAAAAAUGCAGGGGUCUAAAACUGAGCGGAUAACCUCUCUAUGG RNA 2: GGGAAUGGAUCCACAUCUACGAAUUCGUACCAUAGAGGAGGUUAUCCGGCUCACCGAGAUCGGAAGAGCACACGU",
    "pKd": 7.61
  },
  {
    "Binder": "target 2 MT 5'PFS CGG 3'PFS ACA (mixed) RNA 1: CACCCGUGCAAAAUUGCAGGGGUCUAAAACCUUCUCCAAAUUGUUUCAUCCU RNA 2: GGGAAUGGAUCCACAUCUACGAAUUCCGGAGGAUGAAACAAUUUGGAGAAGACAAGAUCGGAAGAGCACACGU",
    "pKd": 8.30
  }
]
